- System Under Test: T1, TAX-IP33 PDZ-GST fusion protein (Homo sapiens (Human), UniProt O14910 103-193)
- T1 construct: Order of GST and PDZ part and limits not seen in the excerpts
- T1 sequence: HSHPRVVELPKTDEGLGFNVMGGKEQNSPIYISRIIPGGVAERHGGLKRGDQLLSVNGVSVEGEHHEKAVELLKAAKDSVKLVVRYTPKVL
- Test Summary: A/G assays
Ends that are not written are not given here. * marks the point of attachment. Biotin = O=C1N[C@H]2[C@H](CS[C@H]2CCCCC(=O)*)N1
Measurement Label: binding result

Biotin-SMQPDNSSDSDYDLHGAQRL (Only the last four residues are seen in the excerpts) [CD5 C-terminal peptide AA49L] : no binding
Biotin-KENDYESISDLQQGRDITRL (also called Phosphoprotein Associated with GEMs) [PAG C-terminal peptide AA58L, biotinylated] : no binding
Biotin-PYGTAMEKAQLKPPATSDA (also called CD49E (alpha-4)) [CD49E C-terminal peptide AA11L, biotinylated] : no binding

Data provenance: patent US20050037969A1
